# System: HOP-62
# assay: NCI tumour cell line growth inhibition, 48 h
Activity calls are given as the source filed them. No stated cut-off is given here; in the data, active = GI50 up to about 1.1 µM and inactive = higher.

| compound | GI50 |
| --- | --- |
| O=C(CCc1ccccc1)NCCc1ccc(O)c(O)c1 | > 40.6 µM (inactive) |
| Cc1ccc(C2C(C(=O)C(C)(C)C)N2S(=O)(=O)c2ccc(C)cc2)cc1 (centres undefined) | 33.5 µM (inactive) |
| CCn1c(SCc2nnc(Nc3ccccc3)s2)nc2ccccc2c1=O | 2.17 µM (inactive) |
| CCCCCOC(=O)c1cc2cc(CCl)ccc2oc1=O | 8.28 µM (inactive) |

---

Reported GI50 by item:
# Tested on: SK-OV-3
# assay: NCI tumour cell line growth inhibition, 48 h
Active and inactive are the calls of the source. Rule as the data show it: active = GI50 up to about 1.1 µM and inactive = higher.

| compound | GI50 |
| --- | --- |
| O=C(Sc1c(-c2ccccc2)c(=O)n(-c2ccccc2)c(=S)n1-c1ccccc1)c1ccccc1 | > 100 µM (inactive) |
| Cc1c(C(=O)C/C(=N/NC(=O)CC#N)C(N)=O)[n+]([O-])c2ccccc2[n+]1[O-] | > 100 µM (inactive) |
| O=C(Nc1nn(C(=O)c2cccnc2)c(=O)s1)c1ccc(Cl)cc1 | 56.2 µM (inactive) |
| CC(C)(C)C1CCC2c3c([nH]c4ccccc34)C3C(=O)N(c4cc(Br)cc(Br)c4)C(=O)C3C2C1 (centres undefined) | 61.1 µM (inactive) |
| COC1OC(CO)C(O)C(NC(=O)N(C)N=O)C1O (centres undefined) | > 100 µM (inactive) |
| N#CC(C#N)=c1ccc(=C2N3CCCC3CN2C23CC4CC(CC(C4)C2)C3)cc1 (centres undefined) | > 100 µM (inactive) |
| Cc1[nH]c2ccccc2c1-c1cc(-c2cc(-c3c(C)[nH]c4ccccc34)on2)no1 | 77.6 µM (inactive) |
| COC1C(OC(=O)c2ccc(C)[nH]2)C(O)C(Oc2ccc3c(O)c(NC(=O)c4ccc(O)c(CC=C(C)C)c4)c(=O)oc3c2Cl)OC1(C)C (centres undefined) | 20.4 µM (inactive) |
| Cc1cccc(=O)c([O-])c1.Cc1cccc(=O)c([O-])c1.[Bi+3].[Cl-] | 22.5 µM (inactive) |
| O=C(O)c1cc2ccc3ccccc3c2oc1=O | > 100 µM (inactive) |
| COc1ccc2c(c1)CC[C@@H]1[C@@H]2CC[C@]2(C)C(=O)/C(=C/c3cc(OC)c(OC)c(OC)c3)C[C@@H]12 | 44 µM (inactive) |
| C[C@]12CCC(=O)C(OC(=O)c3ccc([N+](=O)[O-])cc3)=C1CCC2=O | > 100 µM (inactive) |
| CC1=C(C(=O)Nc2ccccc2C)C(c2ccc(C3C(C(=O)Nc4ccccc4C)=C(C)NC(C)=C3C(=O)Nc3ccccc3C)cc2)C(C(=O)Nc2ccccc2C)=C(C)N1 | 15.3 µM (inactive) |
| COC(=O)[C@@H]1[C@H](O)CCC2=C(CC(=O)c3ccoc3)[C@H](C)CC[C@]21C | > 50 µM (inactive) |
| CCOC(=O)CCC(NC(=O)Cc1ccc(Nc2nc3ccccc3nc2-c2ccccc2)cc1)C(=O)OCC (centres undefined) | 22.4 µM (inactive) |
| C=C1CCc2ccccc2C1=O | > 100 µM (inactive) |
| N#Cc1ccc(/C=C(/C(=O)c2ccccc2)c2ccccc2)cc1 | 20.5 µM (inactive) |
| Cc1ccc(N2C(N)=C(C#N)C(C#N)(C#N)C2c2ccccc2)cc1 (centres undefined) | 16.7 µM (inactive) |
| CCOC(=O)NC | > 100 µM (inactive) |

---

# Tested on: A498
# assay: NCI tumour cell line growth inhibition, 48 h
Calls of active or inactive are those of the source. Cut-off read from the data, not from the text of the source: active = GI50 up to about 1.1 µM and inactive = higher.
Outcome codes: YES (active), NO (inactive)

| compound | label |
| --- | --- |
| O=C(O)c1cccc(S(=O)(=O)NN2C(=O)CSC2c2c(O)ccc3ccccc23)c1 (stereo not given) | NO |
| COc1ccc2nc3cc(Cl)ccc3c(NC(C)CCCN(CCCl)CCCl)c2c1 (stereo not given) | NO |
| CN(CCC#N)c1ccc(/C=C2\SC(=S)NC2=O)cc1 | NO |
| Cc1cn(CCCCCCOC(=O)NC(CCCNC(=N)N)C(=O)O)c(=O)[nH]c1=O (stereo not given) | NO |
| c1cncc(-c2ncc3cccnc3n2)c1 | NO |
| CN(C)/C=N/c1ccc2nonc2c1 | NO |
| C[C@H](c1ccccc1)N1C(=O)[C@@H](O)[C@H]1[C@H](CO)OCc1ccccc1 | NO |
| C=CCN(c1cc(OC)c2[nH]c(C(=O)O)c(C)c2c1[N+](=O)[O-])S(C)(=O)=O | NO |
| COc1cc(S(=O)(=O)Nc2ccc(-c3csc(N4C(=O)CSC4c4ccccc4)n3)cc2)ccc1Cl (stereo not given) | YES |
| COc1ccccc1-c1c(C#N)c(N)[nH]c(=S)c1C#N | NO |

---

# System: A549
# assay: NCI tumour cell line growth inhibition, 48 h
The source made the active and inactive calls. No stated cut-off is given here; in the data, active = GI50 up to about 1.1 µM and inactive = higher.
Outcome codes: yes = active, no = inactive

| molecule | label |
| --- | --- |
| [O-][S+](c1ccccc1)C1CC2CC3(CCC21O)OCCO3 (stereo not drawn) | no |
| O=C1CC2(CCC3=C(O2)c2ccccc2NC(=O)C3)C(=O)c2ccccc2N1 (stereo not drawn) | no |
| CCOC(=O)c1ccc(/N=c2/[nH]c3ccccc3s/c2=N/c2ccc(C(=O)OCC)cc2)cc1 | no |
| CCN(CC)CCC(=O)Nc1ccc2sc3ccccc3c(=O)c2n1 | no |
| O=C1OC(C2Cc3ccc4ccccc4c3C2=O)c2ccccc21 (stereo not drawn) | no |
| O=C1C=C(O)C(=O)c2c(O)ccc(O)c21 | no |
| NC(=O)c1sc2nc3ccccc3n2c1N | no |
| Nc1ccc2c3c1cccc3c(=O)n1c3ccc(Cc4ccc5c(c4)nc4c6ccc(N)c7cccc(c(=O)n54)c76)cc3nc21 | no |
| Nc1ccn(CCOC(=O)c2ccccc2)c(=O)n1 | no |
| Cc1cc(N(CCC#N)CCC#N)ccc1/C=C/C(=O)Nc1ccccc1Cl | no |
| O=C(O)[C@@H]1CCCN1 | no |
| N#Cc1c(Nc2ccccc2)[n+]([O-])c2ccc(Cl)cc2[n+]1[O-] | no |
| CN(C)CCCNc1ccc2ncn3c4ccc(O)cc4c(=O)c1c23 | yes |
| N#CC(C#N)=c1ccc(=C2N3CCCC3CN2C23CC4CC(CC(C4)C2)C3)cc1 (stereo not drawn) | no |
| CCC(C(=O)C(=O)C(CC)P1(=O)OC(C)(C)CN1C(C)(C)C)P1(=O)OC(C)(C)CN1C(C)(C)C (stereo not drawn) | no |
| C=CCN(c1cc(OC)c2[nH]c(C(=O)O)c(C)c2c1[N+](=O)[O-])S(C)(=O)=O | no |
| CC(=O)c1sc2[n+](c1C)C(=O)/C(=C\c1ccccc1Cl)S2 | no |
| C[C@H](c1ccccc1)N1C(=O)[C@@H](O)[C@H]1[C@H](CO)OCc1ccccc1 | no |

---

# System: HT-29
# assay: NCI tumour cell line growth inhibition, 48 h
Calls of active or inactive are those of the source. No stated cut-off is given here; in the data, active = GI50 up to about 1.1 µM and inactive = higher.
Outcome codes: active, inactive

| compound | measured.target | label |
| --- | --- | --- |
| Cc1ccc(/N=C2\OP(=O)(Nc3ccc(C)cc3)Oc3ccccc32)cc1 (stereo not drawn) | HT-29 | inactive |
| CCOC(=O)/C(C(=O)NC(C)C)=C(/N)N1CCOCC1 | HT-29 | inactive |
| CN(C)/C=N/c1ccc2nonc2c1 | HT-29 | inactive |
| COC(=O)C1=C(O)c2cc(OC)c(OC)c(OC)c2[C@H](c2cc(OC)c(OC)c(OC)c2)C1C(=O)OC (stereo partly drawn) | HT-29 | inactive |
| NNC(=S)N/N=C(\CCCC(=O)NCCc1ccccc1)CC(=O)c1ccccc1 | HT-29 | inactive |
| CCn1c(SCc2nnc(Nc3ccccc3)s2)nc2ccccc2c1=O | HT-29 | inactive |
| Cc1cn2c(/C=C3/C(=O)Nc4cccc(Cl)c43)c(Cl)nc2s1 | HT-29 | inactive |
| CC1OC2=N[C@@H]1C(=O)N[C@@H](C(C)C)C1=N[C@H](C(=O)N[C@@H](C(C)C)C3=N[C@H](C(=O)N[C@@H](C(C)C)C4=N[C@H](C(=O)N[C@H]2C(C)C)C(C)O4)C(C)O3)C(C)O1 (stereo partly drawn) | HT-29 | inactive |
| [N-]=[N+]=NC(CBr)c1cn([C@H]2C[C@H](O)[C@@H](CO)O2)c(=O)[nH]c1=O (stereo partly drawn) | HT-29 | inactive |
| C=CC1(C)OC2(CCN(C(=O)OCC)CC2)OC1C (stereo not drawn) | HT-29 | inactive |
| C=C1OC2OC(C)C(NC(=O)OCC(Cl)(Cl)Cl)C(OC(C)=O)C2O1 (stereo not drawn) | HT-29 | inactive |
| CC(=O)NC(CC(C)C)C(=O)NC(CC(C)C)C(=O)NC(C=O)CCCNC(=N)N (stereo not drawn) | HT-29 | inactive |
| [N-]=[N+]=Nc1ccc2c(c1)Sc1ccccc1N2CCCCN1CCN(Cc2ccc(C(=O)c3ccccc3)cc2)CC1 | HT-29 | inactive |
| CC1(C)[N+]([O-])=[N+]([O-])C1(C)Br (stereo not drawn) | HT-29 | inactive |
| Cn1nc(-c2ccccc2)c(C(=O)/C=C/c2ccc(Cl)cc2)c(N2CCOCC2)c1=O | HT-29 | inactive |
| CN(C)CCNC(=O)c1ccc(NC(=O)c2nc([N+](=O)[O-])cn2C)cc1 | HT-29 | inactive |
| Cc1cccc(-c2cc(O)c3cc(C)cnc3n2)c1 | HT-29 | active |
| O=C(Nc1ccccc1C(=O)O)C(=O)C(C(=O)c1ccccc1-c1ccccc1)C1OC(=O)c2ccccc21 (stereo not drawn) | HT-29 | inactive |
| NC(=O)C1CCCN1C(=O)C(Cc1c[nH]cn1)NC(=O)C1CCCC1 (stereo not drawn) | HT-29 | inactive |
| CN1CCOC(c2ccc(Cl)cc2)O1 (stereo not drawn) | HT-29 | inactive |
| N#Cc1c(NC(=S)NC(=O)c2ccccc2)nc2c(c1-c1ccccc1)CCC2 | HT-29 | inactive |
| N#Cc1c(Nc2ccccc2)[n+]([O-])c2ccc(Cl)cc2[n+]1[O-] | HT-29 | inactive |
| COc1ccc(-c2cc3c(nn2)-c2ccccc2C3=O)cc1 | HT-29 | inactive |
| CCOC(=O)[C@@H]1ON2O[C@H](OC3CCCCC3c3ccccc3)C[C@H]3OC(=O)[C@@H]1C32 (stereo partly drawn) | HT-29 | inactive |
| CC(=O)Nc1ccc2[nH]c(C(=O)N3CC(CCl)c4c3cc([N+](=O)[O-])c3ccccc43)cc2c1 (stereo not drawn) | HT-29 | inactive |
| C=C1C(=O)OC2/C=C(\C)C(O)CC(O)C(C)(O)CC(OC(=O)/C(C)=C/C)C12 (stereo not drawn) | HT-29 | inactive |
| CCCC(O)C(NC(=O)CCl)C(=O)O (stereo not drawn) | HT-29 | inactive |
| CC1(C)CC(/C=C2/OC(=O)c3ccccc32)=C(C(N)=O)C(=O)O1 | HT-29 | inactive |
| Nc1c(-c2nc3ccccc3[nH]2)sc(=S)n1-c1ccc(Cl)cc1 | HT-29 | inactive |
| CN(CCC#N)c1ccc(/C=C2\SC(=S)NC2=O)cc1 | HT-29 | inactive |
| COc1cc([C@@H]2c3cc4c(cc3[C@@H](/N=C/c3ccc(C(=O)O[C@@H](C(=O)O[C@H]5C[C@@]6(O)[C@@H](OC(=O)c7ccccc7)[C@@H]7[C@]8(OC(C)=O)CO[C@@H]8C[C@H](O)[C@@]7(C)C(=O)[C@H](OC(C)=O)C(=C5C)C6(C)C)[C@@H](NC(=O)c5ccccc5)c5ccccc5)cc3)[C@H]3COC(=O)[C@H]23)OCO4)cc(OC)c1O | HT-29 | active |
| CC(CO)(CO)Nc1ncnc2ccccc12 | HT-29 | inactive |
| O=C1Nc2ccccc2C1Cc1ccc([N+](=O)[O-])cc1 (stereo not drawn) | HT-29 | inactive |
| Cc1cc(C)c2c(O)cc(-c3ccc(F)cc3)nc2n1 | HT-29 | inactive |
| Cc1cn(CC2=NC3CCCCC3N2)c(=O)[nH]c1=O (stereo not drawn) | HT-29 | inactive |
| COc1ccc2oc(-c3ccncc3)cc(=O)c2c1 | HT-29 | inactive |
| Nc1ccn(CCOC(=O)c2ccccc2)c(=O)n1 | HT-29 | inactive |
| CCCCCCCCCCCCNC(=O)CCC(NC(=O)c1ccc(N(C)Cc2cnc3nc(N)nc(N)c3n2)cc1)C(=O)NCCCCCCCCCCCC (stereo not drawn) | HT-29 | inactive |
